Listed below: TGI values for each entry.
# Tested on: OVCAR-3 ovarian
# EXPERIMENT_SUMMARY: NCI tumour cell line growth inhibition, 48 h

| COMPOUND | TGI |
| --- | --- |
| N#CC(c1ccccc1)c1cccc2ccccc12 (stereo not drawn) | 86.6 µM |
| CC1=CC[C@@H]2C(C)(C)[C@@H](O)CC[C@@]2(C)[C@@H]1COc1ccc2ccc(=O)oc2c1 | 16 µM |
| C=CCN(N=O)C(=O)N(CCC)CCCC(NC(C)=O)C(=O)NCc1ccccc1 (stereo not drawn) | > 100 µM |
| O=[N+]([O-])C(=C(NCc1ccccc1)NCc1ccccc1)C(Cl)=C(Cl)Cl | 69.2 µM |
| O=C(CSC1=NCCN1)c1ccccc1 | > 100 µM |
| NC(=O)c1ccccc1NC(=O)C(=O)C(c1cnc2ccc([N+](=O)[O-])cc2n1)[N+](=O)[O-] (stereo not drawn) | > 100 µM |
| CC1(C)N=C(N)N=C(N)N1c1cccc(CSc2ccccc2)c1 | > 100 µM |
| CCCc1ccc(N=Cc2cc(OC)c(OC)c(OC)c2)cc1 | > 100 µM |
| CCN(CC)CCNc1ccc(N=Nc2ccc(S(N)(=O)=O)cc2)c2ccccc12 | 5.55 µM |
| c1ccc(N=NNNc2ccc(-c3nc4ccccc4[nH]3)cc2)cc1 | 38.1 µM |

Suppose we examine the compound `CC(=O)O/C(C)=C\C(=O)O/N=C(\N)c1ccc(C)cc1` ; what TGI value has been reported?
> 100 µM

# query: TGI of entry `CCOC(=O)/C(=C\c1ccc(CO)o1)P(=O)(OCC)OCC`
59.9 µM

Any idea what TGI was measured for `C/C(=N/O)c1cccc(Nc2nc3ccccc3c3[nH]c4ccccc4c23)c1` ?
5.1 µM

====

Recorded below: GI50, system IGROV1 ovarian.

Would you please look over these solved cases?
| COMPOUND | GI50 |
| --- | --- |
| C=C(CNCCO)[C@@H]1CC[C@]2(CO)CC[C@]3(C)[C@H](CC[C@@H]4[C@@]5(C)CCC(NCCc6ccc(O)cc6)C(C)(C)[C@@H]5CC[C@]43C)[C@@H]12 (some centres undefined) | 1.64 µM |
| CC(C)(C)C([O-])=C1C(=O)c2ccccc2C1=O.CC(C)(C)C([O-])=C1C(=O)c2ccccc2C1=O.CC[O-].CC[O-].[Ti+4] | 70.4 µM |
| CN(C)CCNc1cccc2sc3ccc(O)cc3c(=O)c12 | 3.13 µM |
| COC1C(O)=C2C(=O)OC(C)(O)/C=C/C=C\C=C/C=C/C(c3ccccc3)NC(=O)/C=C/C=C/C=C/C=C/C2(C)C1O (centres undefined) | 0.0303 µM |
| [Cl][Sn]([c]1ccccc1)[c]1ccccc1 | 17.7 µM |

Please report the recorded GI50 for CC(O)C(NC(=O)C(CS)NC(=O)C(CO)NC(=O)C(CCCCN)NC(=O)C(Cc1c[nH]c2ccccc12)NC(=O)C(Cc1ccc(O)cc1)NC(=O)C(CS)NC(=O)C(N)Cc1ccccc1)C(N)=O (centres undefined) .
20.2 µM

Entry under review: `Cc1cc(O)cc(C)c1/C=C/c1cncc(C(=O)N(C)C)c1` . Reported GI50?
> 25 µM

I am curious: what GI50 value has been reported for `CCCCc1cc(O)ccc1O` ?
32.3 µM

What value of GI50 has been recorded for this entry: `NC(N)=N/N=C/c1c(-c2cc(Cl)sc2Cl)nc2n1CCS2`
16.4 µM
